# Tested on: Her2
# TEST NAME: IC50 range for inhibition of Her2 degradation (Table 8)
# Format: cell-based
# RECORDED CONDITIONS: Homo sapiens
pIC50: −log10 of the molar value.
Property: pIC50; scope: individual compounds
RECORDED METRIC: pIC50

INSERT INTO assay_data (compound, endpoint_value) VALUES
  ('O=C(c1ccccc1)c1cccc(-n2c(S)nnc2-c2ccc(O)cc2O)c1 [Compound 64]', '5.00 to 5.52'),
  ('Oc1cc(O)c(C2CC2)cc1-c1nnc(S)n1-c1cccc2ccccc12 [Compound 189]', '> 5.52'),
  ('Cn1cc(-c2nnc(S)n2-c2cccc3ccccc23)c(O)cc1=O [Compound 60]', '4.00 to 5.00'),
  ('CCc1cc(-c2nnc(S)n2-c2ccc(N(C)C)c(OC)c2)c(O)cc1O [Compound 259]', '> 5.52'),
  ('CCc1cc(-c2nnc(S)n2-c2ccc(OC)c3c2ccn3C(C)C)c(O)cc1O [Compound 188]', '> 5.52'),
  ('OCc1cc(O)c(-c2nnc(S)n2-c2cccc3ccccc23)cc1O [Compound 104]', '4.00 to 5.00'),
  ('CCc1cc(-c2nnc(S)n2-c2ccc(OC)c3ccccc23)c(O)cc1O [Compound 76]', '> 5.52'),
  ('CCCN(c1cc(-n2c(S)nnc2-c2cc(CC)c(O)cc2O)ccc1OC)C(C)C [Compound 248]', '> 5.52'),
  ('Oc1ccc(-c2nnc(S)n2-c2cccc(-c3ccccc3)c2)c(O)c1 [Compound 181]', '4.00 to 5.00'),
  ('CCc1cc(-c2nnc(S)n2-c2ccc(OC)c(N(C)C)c2)c(O)cc1O [Compound 251]', '> 5.52'),
  ('Oc1ccc(-c2nnc(S)n2-c2cccc3c2CCCC3)c(O)c1 [Compound 42]', '5.00 to 5.52'),
  ('COc1cccc(-n2c(S)nnc2-c2ccc(O)cc2O)c1 [Compound 21]', '4.00 to 5.00'),
  ('CC(C)Oc1ccc2c(-n3c(S)nnc3-c3ccc(O)cc3O)cccc2c1 [Compound 9]', '5.00 to 5.52'),
  ('CCc1cc(-c2nnc(S)n2-c2ccc(OC)c(N(C)C(C)C)c2)c(O)cc1O [Compound 249]', '> 5.52'),
  ('Oc1ccc(-c2nnc(S)n2-c2cccc3[nH]ccc23)c(O)c1 [Compound 95]', '> 5.52'),
  ('CC(=O)Oc1ccc(-c2nnc(SC(C)=O)n2-c2cccc3ccccc23)c(OC(C)=O)c1 [Compound 122]', '5.00 to 5.52'),
  ('CCc1cc(-c2nnc(S)n2-c2cccc3c(OC)cccc23)c(O)cc1O [Compound 8]', '> 5.52'),
  ('Oc1ccc(-c2nnc(S)n2-c2cccc3cnccc23)c(O)c1 [Compound 70]', '5.00 to 5.52'),
  ('O=C(O)c1cc(O)c(-c2nnc(S)n2-c2cccc3ccccc23)cc1O [Compound 99]', '4.00 to 5.00'),
  ('Cc1ccc(-n2c(S)nnc2-c2ccc(O)cc2O)c(C)c1 [Compound 28]', '5.00 to 5.52'),
  ('COc1cc(-c2nnc(S)n2-c2cccc3ccccc23)c(O)cc1O [Compound 177]', '> 5.52'),
  ('Cc1ccc(CO)cc1-n1c(S)nnc1-c1ccc(O)cc1O [Compound 182]', '4.00 to 5.00'),
  ('COc1cccc(-n2c(S)nnc2-c2ccc(O)cc2O)c1OC [Compound 93]', '5.00 to 5.52'),
  ('Oc1nc(O)c(-c2nnc(S)n2-c2cccc3ccccc23)cc1F [Compound 62]', '4.00 to 5.00'),
  ('CCc1cc(-c2nnc(S)n2-c2cccc3ccccc23)c(O)cc1O [Compound 49]', '> 5.52'),
  ('Oc1ccc(-c2nnc(S)n2-c2cccc(Cl)c2Cl)c(O)c1 [Compound 38]', '5.00 to 5.52'),
  ('[O-][n+]1ccc(-c2nnc(S)n2-c2cccc3ccccc23)c(O)c1 [Compound 98]', '4.00 to 5.00'),
  ('Oc1cc(O)c(-c2nnc(S)n2-c2cccc3ccccc23)cc1O [Compound 184]', '5.00 to 5.52'),
  ('CCc1cc(-c2nnc(S)n2-c2cccc3c2ccn3C(C)C)c(O)cc1O [Compound 100]', '> 5.52'),
  ('Oc1ccc(-c2nnc(S)n2-c2ccc3c4c(cccc24)CC3)c(O)c1 [Compound 36]', '5.00 to 5.52'),
  ('CCc1cc(-c2nnc(S)n2-c2cccc3cc(OC)ccc23)c(O)cc1O [Compound 77]', '> 5.52'),
  ('CCOc1ccc2c(-n3c(S)nnc3-c3ccc(O)cc3O)cccc2c1 [Compound 6]', '5.00 to 5.52'),
  ('CCc1cc(-c2nnc(S)n2-c2ccc3[nH]c(C)c(C)c3c2)c(O)cc1O [Compound 185]', '> 5.52'),
  ('CCc1cc(-c2nnc(S)n2-c2ccc(OC)c(C)c2C)c(O)cc1O [Compound 79]', '> 5.52'),
  ('Oc1ccc(-c2nnc(S)n2-c2ccc(O)c3ccccc23)c(O)c1 [Compound 87]', '> 5.52'),
  ('CCc1cc(-c2nnc(S)n2-c2ccc3c(c2)c(C)c(C)n3C)c(O)cc1O [Compound 103]', '> 5.52');
